Data credit: ChEMBL document CHEMBL4118131

Test system: B16-F10
Assay: Cytotoxicity in mouse B16/F10 cells assessed as reduction in cell viability incubated for 48 hrs by MTT assay
Assay type: functional, cell-based
Settings: B16-F10, 48 h
// reported IC50 per item
API: value field is a number in µM; no unit string.

Use the examples below as a reference point.
> print(dat)
                                 smilestext  valuetype  readoutunits  result
1  COc1ccc(CN(C(=S)Nc2cc(C(F)(F)F)cc(C(F)(F)F)c2)n2cnnc2)cc1OC       IC50            µM    8.54
2      Cc1ccc(NC(=O)N(Cc2ccccn2)n2cnnc2)cc1       IC50            µM    35.2
3  COc1cc(CN(C(=S)Nc2ccc(C)cc2)n2cnnc2)cc(OC)c1OC       IC50            µM    46.8
4  COc1ccc(OC)c(CN(C(=S)Nc2ccc(C)cc2)n2cnnc2)c1       IC50            µM    20.7
5  COc1ccc(CN(C(=S)Nc2ccc(C)cc2)n2cnnc2)cc1OC       IC50            µM    29.9
6  COc1ccc(OC)c(CN(C(=S)NC2CCCCC2)n2cnnc2)c1       IC50            µM    39.5
7  COc1cc(CN(C(=O)Nc2ccc(C#N)cc2)n2cnnc2)cc(OC)c1OC       IC50            µM      21
8  CCc1ccc(NC(=S)N(Cc2cc(OC)c(OC)c(OC)c2)n2cnnc2)cc1       IC50            µM    24.7

Notebook entry, B16-F10 assay: IC50 of COc1ccc(CN(C(=O)Nc2ccc(Cl)cc2)n2cnnc2)cc1OC = ?
42.2

###

// reported pIC50 per item
System: B16-F10
Test: Cytotoxicity in mouse B16/F10 cells assessed as reduction in cell viability incubated for 48 hrs by MTT assay
Assay type: functional, cell-based
Details: B16-F10, 48 h
pIC50: −log10 of the molar value.

Use the examples below as a reference point.
> print(dat)
                                 smilestext  result
1  COc1ccc(CN(C(=O)Nc2ccc(Cl)c(C(F)(F)F)c2)n2cnnc2)cc1OC  < 4.30
2  COc1ccc(CN(C(=O)Nc2ccc(C#N)cc2)n2cnnc2)cc1OC  < 4.30

Query compound follows.
Reported pIC50 for Cc1ccsc1CN(C(=O)Nc1cccc(Cl)c1)n1cnnc1 : what is it?
< 4.30
